# Target Desc: SLC25A3
# Test: pooled miR-30 sensor sort-seq; sequence = guide strand
# Test Parameters: shRNA
Please use rule met whenever sensor-assay potency score (higher = more potent) is not below 0.03, and rule not met whenever it is.

INSERT INTO measurements (item_sequence, classification) VALUES
  ('TTGTACAGTGCTTCAACAGTAC', 'rule met'),
  ('TTCACAACTGTACTCTTCCACG', 'rule not met');

INPUT: Determine whether measured sensor-assay potency score (higher = more potent) meets or exceeds 0.03 for TTGAGGACCAGAGAAGCACTGC
OUTPUT: rule not met

INPUT: Determine whether measured sensor-assay potency score (higher = more potent) meets or exceeds 0.03 for TTTAAATCCAAGTCTCTTGAGG
OUTPUT: rule not met

INPUT: Determine whether measured sensor-assay potency score (higher = more potent) meets or exceeds 0.03 for TAAGTGTAACTGAGAATCCGTT
OUTPUT: rule not met

* * *

# Target Desc: IL13RA1
# Test: pooled miR-30 sensor sort-seq; sequence = guide strand
# Test Parameters: shRNA
Metric Name: sensor-assay potency score (higher = more potent)

INSERT INTO assay_data (item_sequence, recorded_result) VALUES
  ('TTCCATGTCCATATTACTGTGC', -0.274);

INPUT: Give the reported sensor-assay potency score (higher = more potent) for TTGTTCAAAACTGGAATCCTTC (system: IL13RA1).
OUTPUT: -0.391

INPUT: Give the reported sensor-assay potency score (higher = more potent) for TACAGAGTCGGTTTCCTCCTTG (system: IL13RA1).
OUTPUT: 0.15

INPUT: Give the reported sensor-assay potency score (higher = more potent) for TTTGACTCTTATTCTGACTGTG (system: IL13RA1).
OUTPUT: 0.568

INPUT: Give the reported sensor-assay potency score (higher = more potent) for TTGCTTCTCATAGATGTCGTAC (system: IL13RA1).
OUTPUT: -0.044

* * *

Measured sensor-assay potency score (higher = more potent), listed per entry for reference.
# Target Desc: RDH5
# Test: pooled miR-30 sensor sort-seq; sequence = guide strand
# Test Parameters: shRNA
Reply briefly: the number, and no unit.

// solved cases for sensor-assay potency score (higher = more potent) follow
INSERT INTO measurements (item_sequence, recorded_result) VALUES
  ('TCAGTGATATCCAACAGGGTGG', -0.32),
  ('ATCAGTGATATCCAACAGGGTG', -0.912),
  ('TTTCTCCAGACTCTCCAGGTTG', -1.05),
  ('TCGGAAGCCTCTCTGGTCCAGC', -1.15),
  ('TGTGTTCACATTCAGCACCCGC', -1.07);

With those in mind, consider the next sequence.
INPUT: Any idea what sensor-assay potency score (higher = more potent) was measured for AAAATGAGCTACATCCCGCCTC ?
OUTPUT: -0.19

* * *

# Target Desc: PRAMEF6
# Test: pooled miR-30 sensor sort-seq; sequence = guide strand
# Test Parameters: shRNA
Please use t whenever sensor-assay potency score (higher = more potent) is not below -1, and f whenever it is.

INSERT INTO assay_data (item_sequence, classification) VALUES
  ('TTGGAGGCAGCACAGCTTGAGG', 'f');

INPUT: Determine whether measured sensor-assay potency score (higher = more potent) meets or exceeds -1 for TTGGGTAAGCAGTGCATCCAGC
OUTPUT: t

INPUT: Determine whether measured sensor-assay potency score (higher = more potent) meets or exceeds -1 for TTAGTTATTGTGAGGACCTTTA
OUTPUT: t

INPUT: Determine whether measured sensor-assay potency score (higher = more potent) meets or exceeds -1 for TTTTGGAGGCAGCACAGCTTGA
OUTPUT: f

INPUT: Determine whether measured sensor-assay potency score (higher = more potent) meets or exceeds -1 for TCAGCATCATAACTCTCCCGGG
OUTPUT: t

Provenance of the data: the OligoGym collection
